Kindly supply the reported composite z-score values for the records listed here.
molecular target: Dihydroorotate dehydrogenase (quinone), mitochondrial (Plasmodium falciparum (isolate 3D7)) (UniProt Q08210); assay: PfDHODH enzyme inhibitors, primary screen, biochemical, C-terminal His tag, absorbance 600 nm (AID 1175); conditions: DCIP absorbance 600 nm, higher = more signal, called active from +8 up or from −8 down;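 note: recombinant parasite enzyme with a five histidine tag at its C terminus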
Sequence (Q08210 whole entry, looked up): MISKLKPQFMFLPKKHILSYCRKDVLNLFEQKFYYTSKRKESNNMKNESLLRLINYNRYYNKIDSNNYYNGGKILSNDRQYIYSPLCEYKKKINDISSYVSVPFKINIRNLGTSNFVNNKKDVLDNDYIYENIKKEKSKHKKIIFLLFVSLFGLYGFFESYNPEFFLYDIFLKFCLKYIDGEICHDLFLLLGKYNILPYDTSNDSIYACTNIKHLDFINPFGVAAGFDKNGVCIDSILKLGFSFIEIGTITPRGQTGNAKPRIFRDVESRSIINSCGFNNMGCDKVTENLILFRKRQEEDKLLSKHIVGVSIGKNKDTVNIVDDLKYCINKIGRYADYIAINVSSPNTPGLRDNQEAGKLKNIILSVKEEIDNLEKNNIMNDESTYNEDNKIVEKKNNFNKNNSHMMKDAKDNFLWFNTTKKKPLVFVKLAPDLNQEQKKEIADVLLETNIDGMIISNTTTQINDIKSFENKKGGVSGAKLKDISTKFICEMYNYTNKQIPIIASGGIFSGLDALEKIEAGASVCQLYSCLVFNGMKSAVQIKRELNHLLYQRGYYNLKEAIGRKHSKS
Give bare numbers.

Please review the following examples before continuing.
Compound	Test readout	Observed value
CC[C@H]1C2=C3C(CC[C@H]4C(OCc5ccc(F)cc5C(F)(F)F)OC[C@](C)([C@@H]34)N(C(=O)OC(C)(C)C)C2)C2COC(=O)OCC21 (stereo partly drawn)	composite z-score	0.0979
CC(C)(C)OC(=O)CC[C@]1(C(=O)O)N=C(c2ccc(OCCCO)cc2)O[C@H]1c1ccccc1CN=[N+]=[N-]	composite z-score	0.209

Switching to the query record.
So, `C=CCOC(=O)[C@@H]1[C@H]2C(=O)O[C@H](c3ccccc3)[C@H](c3ccccc3)N2[C@H](c2ccc(OCCOC(=O)[C@H]3C[C@H]4C(=O)N[C@@H](CCCCN(C)C)C(=O)N4[C@H]3c3cccc(OCCO)c3)cc2)[C@@]12C(=O)Nc1ccc(I)cc12` ? Its composite z-score was 0.26

* * *

Please respond with reported composite z-score for every item in the list.
system: XIP peptide (Xip251-270); experiment: small-molecule binders of XIP peptide, primary screen, biochemical, small-molecule microarray, fluorescence 635/667 nm, 0.5 µg/mL protein (AID 1183); conditions: small-molecule microarray binding, fluorescence 635 nm; higher = more signal
Give bare numbers.

Molecule	composite z-score
CN1C(=O)C2C(C1=O)C1C=C(c3ccc(CO)cc3)C2C(c2cccs2)N1Cc1cccc(OC(F)(F)F)c1 (configuration not stated)	0.591

The following molecules each have a reported value; give each one's composite z-score.
1. [N-]=[N+]=NCc1ccccc1C[C@@]1(C(=O)N2CCCCC2)N=C(c2ccc(OCCCO)cc2)O[C@@H]1c1ccccc1N=[N+]=[N-]
2. COC(=O)Cn1c(C(=O)N2CCCC2)cc2c1C[C@H]1CN(C(=O)c3ccccc3)[C@@](Cc3ccc(F)cc3)(C(=O)OC)[C@@H]21
3. C=CC[C@]1(C(=O)N(C)C)N=C(c2ccc(OCCCO)cc2)O[C@H]1c1ccccc1N=[N+]=[N-]
4. CN(C)CCCN1C(=O)[C@@]2(c3ccc([N+](=O)[O-])cc3)CC(=O)N(CC34CC5CC(CC(C5)C3)C4)[C@@H]2c2ccc(CO)cc21
5. COc1ccc([Si](C)(C)[C@H]2[C@H](CCn3cc(CCO)nn3)O[C@@]3(C(=O)N(Cc4ccc(N5C(=O)c6cccc7cccc5c67)cc4)c4ccccc43)[C@@H]2C)cc1

Response given:
[0.386, 0.513, 0.382, 0.35, 0.625]

Batch request: composite z-score for each of the following molecules.
1. CC[C@@H]1[C@H]2C3C(=O)N(CC)C(=O)C3CC(=O)[C@H]2[C@H](c2ccc(C)cc2)N1S(=O)(=O)c1ccc(C)cc1 (some centres not stated)
2. CC=CC(O)C1C=CC2C(=O)N(c3ccccc3)C(=O)C2N1Nc1ccccc1 (configuration not stated)
3. O=C1NC(=O)C2C1C=CC(C(O)c1c(F)cccc1Cl)N2Nc1ccccn1 (configuration not stated)
4. C[C@H]1C2=C3C(CC[C@H]4C(OCc5ccc(F)cc5C(F)(F)F)OC[C@](C)([C@@H]34)N(C(=O)OC(C)(C)C)C2)C2COC(=O)OCC21 (some centres not stated)
5. CC(C)c1ccc(NN2C(C(O)c3ccco3)C=CC3C(=O)N(c4ccccc4)C(=O)C32)cc1 (configuration not stated)
6. O=C1C[C@]2(c3ccc([N+](=O)[O-])cc3)C(=O)N(Cc3ccccc3)c3cc(CO)ccc3[C@H]2N1CC12CC3CC(CC(C3)C1)C2
7. C[C@H]1ON(c2ccc(C(=O)OC(C)(C)C)cc2)[C@@H](c2ccc(O)cc2)[C@@H]1C(=O)N1C(=O)OC[C@@H]1c1ccccc1
8. CCC[C@@H]1C[C@@]1(CCC)[C@@H](NP(=O)(c1ccccc1)c1ccccc1)c1ccc(Cl)cc1

Response given:
1: 0.643; 2: 0.813; 3: 0.833; 4: 0.551; 5: 0.849; 6: -1.46; 7: 0.446; 8: -0.53

* * *

biological target: Focal adhesion kinase 1 (Homo sapiens) (UniProt Q05397); experiment: small-molecule microarray binders of FAK, primary screen, biochemical, 635/667 nm fluorescence, BSA, DTT (AID 1130); conditions: PTK2 binding, 635 nm fluorescence, higher = more signal;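 note: composite of spot emission at 667 nm and signal to noise over triplicate slides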
Sequence (Q05397 whole entry, looked up): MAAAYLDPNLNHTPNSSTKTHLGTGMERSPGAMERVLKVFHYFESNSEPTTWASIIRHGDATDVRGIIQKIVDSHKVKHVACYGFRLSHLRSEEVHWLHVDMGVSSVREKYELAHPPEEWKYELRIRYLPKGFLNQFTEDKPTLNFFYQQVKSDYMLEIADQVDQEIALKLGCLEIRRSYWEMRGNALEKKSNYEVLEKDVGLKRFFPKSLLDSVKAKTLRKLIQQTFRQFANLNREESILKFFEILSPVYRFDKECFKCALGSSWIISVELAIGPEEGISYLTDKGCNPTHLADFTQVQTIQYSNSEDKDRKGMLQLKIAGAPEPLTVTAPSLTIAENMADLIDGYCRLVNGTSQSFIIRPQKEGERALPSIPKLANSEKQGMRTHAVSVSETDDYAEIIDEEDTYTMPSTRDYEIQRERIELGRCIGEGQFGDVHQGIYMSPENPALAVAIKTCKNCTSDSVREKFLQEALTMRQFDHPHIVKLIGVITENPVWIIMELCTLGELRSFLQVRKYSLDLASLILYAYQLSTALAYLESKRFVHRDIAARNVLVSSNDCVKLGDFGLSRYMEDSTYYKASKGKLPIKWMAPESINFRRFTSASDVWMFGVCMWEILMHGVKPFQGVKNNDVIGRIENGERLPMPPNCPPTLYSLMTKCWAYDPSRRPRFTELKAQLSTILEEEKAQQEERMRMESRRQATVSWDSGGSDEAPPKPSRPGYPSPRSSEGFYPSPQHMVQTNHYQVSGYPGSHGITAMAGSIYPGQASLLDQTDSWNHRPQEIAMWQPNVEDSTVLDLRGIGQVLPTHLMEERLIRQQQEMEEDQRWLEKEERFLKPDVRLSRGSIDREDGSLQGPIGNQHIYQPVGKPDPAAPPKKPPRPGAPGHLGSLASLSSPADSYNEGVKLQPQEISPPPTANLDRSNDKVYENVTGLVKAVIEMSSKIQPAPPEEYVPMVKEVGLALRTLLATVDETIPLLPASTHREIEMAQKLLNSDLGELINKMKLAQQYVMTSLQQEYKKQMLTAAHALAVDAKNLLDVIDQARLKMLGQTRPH
Test readout: composite z-score
One number for each entry.

Below, 6 compounds whose answers are already recorded.
Compound	composite z-score
CCOC(=O)C[C@H]1[C@H](OC(=O)Cc2ccc3c(c2)OCO3)[C@@H](NC(=O)C2CCCCC2)c2cc(OCCCO)ccc2N1C(=O)c1ccc2ccccc2n1	0.309
[N-]=[N+]=Nc1ccccc1[C@H]1OC(c2ccc(OCCCO)cc2)=N[C@@]1(CCS(=O)(=O)c1ccccc1)C(=O)N1CCCCC1	0.944
COc1ccc([Si](C)(C)[C@H]2[C@H](CC(=O)N3Cc4ccccc4C[C@H]3CO)O[C@@]3(C(=O)N(Cc4cccc(N5CCCCC5=O)c4)c4ccccc43)[C@@H]2C)cc1	0.566
CC[C@@H]1[C@H]2C3C(=O)N(CC)C(=O)C3CC(=O)[C@H]2[C@H](c2ccc(C)cc2)N1S(=O)(=O)c1ccc(C)cc1 (some centres not stated)	0.213
CC(C)N1CC=CC23O[C@@H]4C=CCCOC(=O)C4[C@H]2C(=O)N(CCO)[C@@H]3C1=O (some centres not stated)	-0.482
COCC(=C=CC[C@H](O)c1cccc(OCCO)c1)C[C@H](O)c1ccccn1	-0.296

From here, focus on the item given below.
So the reported composite z-score for `CN1C(=O)[C@@]2(CCS(=O)(=O)c3ccccc3)N=C(c3ccc(OCCCO)cc3)O[C@H]2c2ccccc21` , on Focal adhesion kinase 1 (Homo sapiens) (UniProt Q05397), turned out to be 0.582

* * *

experiment: small-molecule microarray binders of probe aWnt5a, primary screen, biochemical, biotinylated probe, 635/667 nm fluorescence (AID 1113); settings: higher = more signal;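 note: score merges 667 nm fluorescence intensity with signal-to-noise per printed feature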
Test readout: composite z-score
Numbers only.

Some compounds with recorded composite z-score:
Compound	composite z-score
COCCCNC(=O)[C@@]1(Sc2ccc(C)cc2)CC(=O)N(Cc2cc(C(F)(F)F)cc(C(F)(F)F)c2)[C@@H]1c1ccc(CO)cc1	-0.096
C[C@@H](OCc1ccccc1)C1NC(=O)[C@@]23C(=O)N[C@@H](Cc4ccccc4)C2[C@H](C)[C@@]2(C)O[C@H]2C3/C=C/C/C=C\CNC(=O)CNC1=O (stereo partly specified)	-0.199
COc1ccc([Si](C)(C)[C@H]2[C@H](CCO)O[C@@]3(C(=O)N(Cc4cccc(N5CCCCC5=O)c4)c4ccccc43)[C@@H]2C)cc1	-0.0919
COc1cc(OC)c(C(O)C2C=CC3C(=O)N(c4ccccc4)C(=O)C3N2Nc2ccc(C#N)cc2)cc1Br (stereo unspecified)	0.471
CO[C@H]1O[C@H](CO)[C@@H](OC(=O)Nc2ccc(C(F)(F)F)cc2)[C@H](OC(=O)Nc2ccc3c(c2)OCO3)[C@H]1OC(=O)Nc1ccc2c(c1)OCO2	0.0438

# batch size: 7; output composite z-score per entry
1. CN1C(=O)C2C=CC(C(O)C3CCCCC3)N(N3CCCCC3)C2C1=O (stereo unspecified)
2. O=C(O)[C@H]1C[C@H]2C(=O)N3CCC[C@H]3C(=O)N2[C@H]1c1cccc(OCCO)c1
3. O=C1OCC=C[C@H]2OC34C=CCN(Cn5nnc6ccccc65)C(=O)[C@H]3N(CCCCCCO)C(=O)[C@@H]4[C@@H]12 (stereo partly specified)
4. Cc1ccc(S[C@]2(C(=O)NC(C)C)CC(=O)N(Cc3ccccc3C(F)(F)F)[C@@H]2c2ccc(CO)cc2I)cc1
5. O=C1NC(=O)C2C1C=CC(C(O)c1cc(C(F)(F)F)cc(C(F)(F)F)c1)N2Nc1ccc(Cl)cc1Cl (stereo unspecified)
6. Cc1ccc(S[C@]2(C(=O)NC3CC3)CC(=O)N(Cc3ccccc3Cl)[C@@H]2c2ccc(CO)cc2I)cc1
7. COc1ccc(NN2C(C(O)c3ccccn3)C=CC3C(=O)N(C4CCCCC4)C(=O)C32)cc1 (stereo unspecified)

Response given:
[0.164, -0.0944, -0.152, -0.13, -0.0405, 0.109, 0.0391]

* * *

assay: E. coli acrAB mutant growth effects, primary screen, E. coli filamentation inducers, strain DRC39, OD650, 48 h (AID 1179);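 note: screen aims at cell division blockers that make cells filament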; settings: E. coli DRC39 delta-acrAB growth, higher = more signal, called active from +8 up or from −8 down
Test readout: z-score
Answers are plain numbers.

Recorded results for 5 compounds are shown here.
Compound	z-score
CO[C@H]1O[C@H](CO)[C@@H](OC(=O)Nc2ccc(C(F)(F)F)cc2)[C@H](OC(=O)Nc2ccc3c(c2)OCO3)[C@H]1OC(=O)Nc1ccc2c(c1)OCO2	-0.553
CC(C)N1CC=CC23O[C@@H]4C=CCCOC(=O)C4[C@H]2C(=O)N(CCO)[C@@H]3C1=O (some centres not stated)	-0.327
CCOC(=O)C[C@H]1[C@H](OC(=O)c2ccc(-c3ccccc3)cc2)[C@@H](NC(=O)c2ccc3ccccc3n2)c2cc(OCCCO)ccc2N1C(=O)c1ccccc1	0.287
CCCC[C@@H]1C[C@H]1[C@@H](NC(=O)c1cccnc1)c1ccc(-c2ccccc2)cc1	-0.762
COc1ccc([Si](C)(C)[C@H]2[C@H](CCn3cc([C@H](O)c4ccccc4)nn3)O[C@@]3(C(=O)N(Cc4ccc(N5CCC5=O)cc4)c4ccccc43)[C@@H]2C)cc1	-0.422

Value sought for every listed compound: z-score.
1. CC=CC(O)C1C=CC2C(=O)N(c3ccccc3)C(=O)C2N1Nc1ccccc1 (configuration not stated)
2. CC(=O)n1cc(C(O)C2C=CC3C(=O)N(Cc4ccccc4)C(=O)C3N2n2cnnc2)c2ccccc21 (configuration not stated)

Response given:
0.412
-1.4
